System: Escherichia coli
ASSAY INFO: Antimicrobial activity against Escherichia coli MTCC 739 assessed as diameter of growth inhibition zone after 24 hr by paper disk diffusion technique; further: test concentration or dose not given here
Assay type: functional
ENDPOINT NAME: diameter of the inhibition zone (DIZ) (mm)

{"COMPOUND": "O=C1C(Cl)C(c2cc3ccccc3nc2Cl)N1c1ccc(F)cc1 (centres undefined)", "ENDPOINT NAME": "diameter of the inhibition zone (DIZ)", "INEQUALITY SIGN": "=", "EXPERIMENTAL RESULT": 23}
{"COMPOUND": "O=C1CSC(c2cc3ccccc3nc2Cl)N1c1ccc(F)cc1 (centres undefined)", "ENDPOINT NAME": "diameter of the inhibition zone (DIZ)", "INEQUALITY SIGN": "=", "EXPERIMENTAL RESULT": 23}
{"COMPOUND": "Cc1ccc(N2C(=O)C(Cl)C2c2cc3ccccc3nc2Cl)cc1 (centres undefined)", "ENDPOINT NAME": "diameter of the inhibition zone (DIZ)", "INEQUALITY SIGN": "=", "EXPERIMENTAL RESULT": 15}
{"COMPOUND": "O=C1C(Cl)C(c2cc3ccccc3nc2Cl)N1c1ccccc1 (centres undefined)", "ENDPOINT NAME": "diameter of the inhibition zone (DIZ)", "INEQUALITY SIGN": "<", "EXPERIMENTAL RESULT": 10}
{"COMPOUND": "Cc1cnc(N2C(=O)C(Cl)C2c2cc3ccccc3nc2Cl)s1 (centres undefined)", "ENDPOINT NAME": "diameter of the inhibition zone (DIZ)", "INEQUALITY SIGN": "=", "EXPERIMENTAL RESULT": 24}
{"COMPOUND": "O=C1CSC(c2cc3ccccc3nc2Cl)N1c1ccccc1Cl (centres undefined)", "ENDPOINT NAME": "diameter of the inhibition zone (DIZ)", "INEQUALITY SIGN": "=", "EXPERIMENTAL RESULT": 21}
{"COMPOUND": "Cc1ccccc1N1C(=O)CSC1c1cc2ccccc2nc1Cl (centres undefined)", "ENDPOINT NAME": "diameter of the inhibition zone (DIZ)", "INEQUALITY SIGN": "<", "EXPERIMENTAL RESULT": 10}
{"COMPOUND": "O=C1CSC(c2cc3ccccc3nc2Cl)N1c1ccccc1[N+](=O)[O-] (centres undefined)", "ENDPOINT NAME": "diameter of the inhibition zone (DIZ)", "INEQUALITY SIGN": "=", "EXPERIMENTAL RESULT": 24}
{"COMPOUND": "O=C1CSC(c2cc3ccccc3nc2Cl)N1c1cccc(Cl)c1 (centres undefined)", "ENDPOINT NAME": "diameter of the inhibition zone (DIZ)", "INEQUALITY SIGN": "=", "EXPERIMENTAL RESULT": 22}
{"COMPOUND": "O=C1C(Cl)C(c2cc3ccccc3nc2Cl)N1c1ccc([N+](=O)[O-])cc1 (centres undefined)", "ENDPOINT NAME": "diameter of the inhibition zone (DIZ)", "INEQUALITY SIGN": "=", "EXPERIMENTAL RESULT": 20}
{"COMPOUND": "O=C1CSC(c2cc3ccccc3nc2Cl)N1c1cccc([N+](=O)[O-])c1 (centres undefined)", "ENDPOINT NAME": "diameter of the inhibition zone (DIZ)", "INEQUALITY SIGN": "=", "EXPERIMENTAL RESULT": 22}
{"COMPOUND": "Cc1cccc(N2C(=O)C(Cl)C2c2cc3ccccc3nc2Cl)c1 (centres undefined)", "ENDPOINT NAME": "diameter of the inhibition zone (DIZ)", "INEQUALITY SIGN": "=", "EXPERIMENTAL RESULT": 14}
{"COMPOUND": "O=C1C(Cl)C(c2cc3ccccc3nc2Cl)N1c1cccc(Cl)c1 (centres undefined)", "ENDPOINT NAME": "diameter of the inhibition zone (DIZ)", "INEQUALITY SIGN": "=", "EXPERIMENTAL RESULT": 21}
{"COMPOUND": "Cc1ccc(N2C(=O)CSC2c2cc3ccccc3nc2Cl)cc1 (centres undefined)", "ENDPOINT NAME": "diameter of the inhibition zone (DIZ)", "INEQUALITY SIGN": "=", "EXPERIMENTAL RESULT": 17}

###

Tested on: Pseudomonas aeruginosa
ASSAY INFO: Antimicrobial activity against Pseudomonas aeruginosa MTCC 741 assessed as diameter of growth inhibition zone after 24 hr by paper disk diffusion technique; further: test concentration or dose not given here
Format: functional
ENDPOINT NAME: diameter of the inhibition zone (DIZ)

{"MOLECULE": "O=C(O)c1cn(C2CC2)c2cc(N3CCNCC3)c(F)cc2c1=O", "EXPERIMENTAL RESULT": "33 mm"}
{"MOLECULE": "O=C1C(Cl)C(c2cc3ccccc3nc2Cl)N1c1ccc([N+](=O)[O-])cc1 (stereo unspecified)", "EXPERIMENTAL RESULT": "23 mm"}
{"MOLECULE": "Cc1cccc(N2C(=O)C(Cl)C2c2cc3ccccc3nc2Cl)c1 (stereo unspecified)", "EXPERIMENTAL RESULT": "16 mm"}
{"MOLECULE": "O=C1CSC(c2cc3ccccc3nc2Cl)N1c1cccc([N+](=O)[O-])c1 (stereo unspecified)", "EXPERIMENTAL RESULT": "24 mm"}
{"MOLECULE": "O=C1C(Cl)C(c2cc3ccccc3nc2Cl)N1c1ccc(F)cc1 (stereo unspecified)", "EXPERIMENTAL RESULT": "22 mm"}
{"MOLECULE": "O=C1CSC(c2cc3ccccc3nc2Cl)N1c1ccccc1Cl (stereo unspecified)", "EXPERIMENTAL RESULT": "21 mm"}
